systemUnderTest: single-chain tethered dimer of HIV protease (Human immunodeficiency virus 1)
testDescription: biochemical
Format: biochemical
experimentalSetup: HIV protease inhibition; class symbols; read-out: Ki
In this section we review reported Ki values for a set of compounds.
measureName: Ki

- O=C1N(Cc2cccc(Cl)c2)C(Cc2ccccc2)C(O)C(O)C(Cc2ccccc2)N1CC1CC1 (centres unmarked): < 10 nM
- O=C(O)c1cccc(CN2C(=O)N(Cc3cccc(C(=O)O)c3)C(Cc3ccccc3)C(O)C(O)C2Cc2ccccc2)c1 (centres unmarked): < 10 nM
- C=CCN1C(=O)N(Cc2ccc3ccccc3n2)C(Cc2ccccc2)C(O)C(O)C1Cc1ccccc1 (centres unmarked): < 10 nM
- O=C1N(CC2CCCCC2)C(Cc2ccccc2)C(O)C(O)C(Cc2ccccc2)N1CC1CCCCC1 (centres unmarked): 10 to 1000 nM
- O=C1NC(Cc2ccccc2)C(O)C(O)C(Cc2ccccc2)N1CC1CC1 (centres unmarked): 10 to 1000 nM
